Measured values drawn from patent US7528138B2 for this set.

Target: JAK3 (Homo sapiens)
Sequence (P52333 1-1124): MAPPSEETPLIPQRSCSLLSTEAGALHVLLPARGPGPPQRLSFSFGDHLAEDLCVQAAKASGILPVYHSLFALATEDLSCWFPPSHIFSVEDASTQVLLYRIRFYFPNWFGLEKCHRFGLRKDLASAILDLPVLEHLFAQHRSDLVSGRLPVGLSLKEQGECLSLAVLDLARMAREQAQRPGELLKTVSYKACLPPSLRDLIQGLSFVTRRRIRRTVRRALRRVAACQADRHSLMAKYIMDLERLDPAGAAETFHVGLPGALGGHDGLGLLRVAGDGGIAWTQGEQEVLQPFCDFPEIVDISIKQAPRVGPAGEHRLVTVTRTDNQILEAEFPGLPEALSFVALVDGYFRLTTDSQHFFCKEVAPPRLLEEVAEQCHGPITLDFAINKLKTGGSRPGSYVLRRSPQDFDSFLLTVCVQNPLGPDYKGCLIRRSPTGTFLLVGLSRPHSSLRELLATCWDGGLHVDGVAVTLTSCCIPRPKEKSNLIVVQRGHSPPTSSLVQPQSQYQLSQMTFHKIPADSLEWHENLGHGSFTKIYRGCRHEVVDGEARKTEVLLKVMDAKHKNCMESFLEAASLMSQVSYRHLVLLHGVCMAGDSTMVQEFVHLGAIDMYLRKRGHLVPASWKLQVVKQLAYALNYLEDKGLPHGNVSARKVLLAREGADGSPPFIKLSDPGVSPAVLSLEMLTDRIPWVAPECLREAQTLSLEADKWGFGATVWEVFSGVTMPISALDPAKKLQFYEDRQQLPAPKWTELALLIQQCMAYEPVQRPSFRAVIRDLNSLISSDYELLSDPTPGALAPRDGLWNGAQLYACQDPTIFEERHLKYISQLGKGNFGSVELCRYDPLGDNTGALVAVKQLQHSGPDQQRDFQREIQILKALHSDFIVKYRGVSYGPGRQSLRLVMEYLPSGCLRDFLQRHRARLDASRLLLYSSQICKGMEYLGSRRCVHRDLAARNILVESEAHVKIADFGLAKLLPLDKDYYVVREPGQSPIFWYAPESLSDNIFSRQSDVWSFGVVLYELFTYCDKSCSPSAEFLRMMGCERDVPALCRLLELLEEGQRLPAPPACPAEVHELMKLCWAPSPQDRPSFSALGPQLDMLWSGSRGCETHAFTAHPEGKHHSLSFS
Assay: JAK3 Inhibition Assay, 33P incorporation
Format: biochemical
Conditions: enzyme inhibition data (Ki), Table 11
Entries annotated with measured Ki

Compound	Study system	Result
COCCNc1cc(-c2cnc3c(-c4ccccn4)c(N)nn3c2)ccn1 [Compound V-245]	JAK3 (Homo sapiens)	> 5 µM
CN1CCN(c2ccc(-c3cnc4c(-c5ccccn5)c(N)nn4c3)cn2)CC1 [Compound V-145]	JAK3 (Homo sapiens)	> 5 µM
CCCCN(CCN)C(=O)c1cccc(-c2cnc3c(-c4ccccn4)c(N)nn3c2)n1 [Compound V-113]	JAK3 (Homo sapiens)	0.5 to 5 µM
CN(CCC#N)C(=O)c1c(N)nn2cc(-c3ccncn3)cnc12 [Compound V-40]	JAK3 (Homo sapiens)	> 5 µM
Cc1ccn2nc(N)c(-c3ccccc3)c2n1 [Compound V-1]	JAK3 (Homo sapiens)	> 5 µM
Nc1nn2cc(N3CCC[C@@H]3CN3CCCC3)cnc2c1-c1ccccn1 [Compound V-272]	JAK3 (Homo sapiens)	> 5 µM
Nc1nn2cc(-c3ccncn3)cnc2c1C(=O)N[C@H](CO)c1ccccc1 [Compound V-46]	JAK3 (Homo sapiens)	> 5 µM
Cc1cnc2c(-c3cc(NC4CCN(C)CC4)ncn3)c(N)nn2c1 [Compound V-284]	JAK3 (Homo sapiens)	0.5 to 5 µM
Nc1ccccc1-c1cnc2c(-c3ccccn3)c(N)nn2c1 [Compound V-20]	JAK3 (Homo sapiens)	> 5 µM
Nc1nn2cc(-c3ccnc(N4CCC[C@@H]4CO)c3)cnc2c1-c1ccccn1 [Compound V-251]	JAK3 (Homo sapiens)	> 5 µM

## Input Reported Ki for Nc1nn2cc(-c3ccc(CN4CCC(N)CC4)cc3)cnc2c1-c1ccccn1 [Compound V-234] : what is it?
## Output 0.5 to 5 µM

## Input // repeat for CCN(C)c1ccc(-c2cnc3c(-c4ccccn4)c(N)nn3c2)cn1 [Compound V-171] and report
## Output > 5 µM

## Input Also check Cc1cnc2c(-c3cc(N4CCC(NC(=O)C(F)(F)F)C4)ncn3)c(N)nn2c1 (centres unmarked) [Compound V-343]
## Output 0.5 to 5 µM

## Input Next up: CC(C)N(C)C(=O)c1cccc(-c2cnc3c(-c4ccccn4)c(N)nn3c2)n1 [Compound V-103]
## Output > 5 µM

## Input Also, Nc1nn2cc(N3CCCC3)cnc2c1-c1ccccn1 [Compound V-58] please.
## Output > 5 µM

## Input Follow-up item: CCOC(=O)c1c(N)nn2cc(-c3cnccn3)cnc12 [Compound V-26]
## Output > 5 µM

## Input Consider next the compound CCN(Cc1ccncc1)C(=O)c1c(N)nn2cc(-c3ccncn3)cnc12 [Compound V-36] in the same way.
## Output > 5 µM

## Input Next compound: CCCCNC(=O)c1ccc(-c2cnc3c(-c4ccccn4)c(N)nn3c2)nc1 [Compound V-77]
## Output > 5 µM

## Input Same read-out for Nc1nn2cc(CCCNC3CCC3)cnc2c1-c1ccccn1 [Compound V-324] ?
## Output > 5 µM

## Input Another: CSc1cc(-c2c(N)nn3cc(C)cnc23)ncn1 [Compound V-281]
## Output 0.5 to 5 µM

## Input Same again, this time with Nc1nn2cc(-c3ccnc(N4CCN(c5cnccn5)CC4)c3)cnc2c1-c1ccccn1 [Compound V-255]
## Output > 5 µM

## Input // query: CS(=O)(=O)Nc1ccccc1-c1cnc2c(-c3ccccn3)c(N)nn2c1 [Compound V-16]
## Output > 5 µM

## Input Please do the same for Nc1nn2cc(-c3ccc(N4CCCC4)nc3)cnc2c1-c1ccccn1 [Compound V-143] as well.
## Output > 5 µM

---

Biological target: c-Met (Homo sapiens)
Sequence (P08581 25-1390): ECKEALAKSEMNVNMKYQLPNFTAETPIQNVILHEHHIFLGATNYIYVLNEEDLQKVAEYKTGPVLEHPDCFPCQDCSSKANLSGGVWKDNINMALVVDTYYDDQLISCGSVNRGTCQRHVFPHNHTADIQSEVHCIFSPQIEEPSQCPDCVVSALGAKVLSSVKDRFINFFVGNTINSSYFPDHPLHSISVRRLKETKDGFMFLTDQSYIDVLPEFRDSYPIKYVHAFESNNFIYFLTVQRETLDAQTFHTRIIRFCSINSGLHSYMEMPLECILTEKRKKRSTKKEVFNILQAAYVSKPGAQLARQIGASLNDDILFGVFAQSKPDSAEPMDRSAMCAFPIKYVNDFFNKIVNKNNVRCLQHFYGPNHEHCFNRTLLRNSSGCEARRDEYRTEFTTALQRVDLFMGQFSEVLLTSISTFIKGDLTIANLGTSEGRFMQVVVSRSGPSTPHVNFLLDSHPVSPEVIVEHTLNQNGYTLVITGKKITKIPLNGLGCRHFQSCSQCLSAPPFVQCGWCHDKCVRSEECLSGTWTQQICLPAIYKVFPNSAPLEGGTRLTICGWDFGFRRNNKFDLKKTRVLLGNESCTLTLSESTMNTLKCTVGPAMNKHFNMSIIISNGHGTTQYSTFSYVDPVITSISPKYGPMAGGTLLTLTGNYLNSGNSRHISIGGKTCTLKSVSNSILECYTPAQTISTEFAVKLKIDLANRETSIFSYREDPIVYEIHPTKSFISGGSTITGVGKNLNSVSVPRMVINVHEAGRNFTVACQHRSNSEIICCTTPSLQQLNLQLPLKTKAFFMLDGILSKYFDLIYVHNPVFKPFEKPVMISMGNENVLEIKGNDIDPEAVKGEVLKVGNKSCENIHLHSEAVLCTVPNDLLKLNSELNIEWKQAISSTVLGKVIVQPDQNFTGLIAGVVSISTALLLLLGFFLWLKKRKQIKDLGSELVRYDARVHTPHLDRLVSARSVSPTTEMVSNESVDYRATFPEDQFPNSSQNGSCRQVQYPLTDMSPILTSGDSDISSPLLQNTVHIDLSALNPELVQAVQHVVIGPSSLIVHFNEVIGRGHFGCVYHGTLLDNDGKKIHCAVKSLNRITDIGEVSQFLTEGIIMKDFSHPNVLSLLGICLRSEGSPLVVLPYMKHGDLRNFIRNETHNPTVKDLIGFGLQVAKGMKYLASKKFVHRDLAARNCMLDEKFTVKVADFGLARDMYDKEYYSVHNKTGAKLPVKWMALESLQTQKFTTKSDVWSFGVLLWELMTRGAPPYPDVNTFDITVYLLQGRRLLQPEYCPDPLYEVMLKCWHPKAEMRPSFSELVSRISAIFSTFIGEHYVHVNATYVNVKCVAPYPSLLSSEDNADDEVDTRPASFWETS
Reported property: Ki

Worked cases, Ki given:
COCCNc1cc(-c2cnc3c(-c4ccccn4)c(N)nn3c2)ccn1 < 500 nM
COC(=O)/C=C/c1ccccc1-c1cnc2c(-c3ccccn3)c(N)nn2c1 500 to 5000 nM
Nc1nn2cc(-c3cccc(C(=O)N4CCC[C@@H]4CN4CCCC4)n3)cnc2c1-c1ccccn1 < 500 nM

## Input Find the recorded Ki belonging to CN1CCC(N(C)c2ccc(-c3cnc4c(-c5ccccn5)c(N)nn4c3)cn2)CC1 and report it.
## Output < 500 nM

---

This section lists pKi readings for c-Met (Homo sapiens).
pKi: −log10 of the molar value.

Compound	pKi
CN(Cc1cccnc1)c1cc(-c2cnc3c(-c4ccccn4)c(N)nn3c2)ccn1	5.30 to 6.30
Nc1nn2cc(-c3ccc(CN4CC[C@H](N)C4)cc3)cnc2c1-c1ccccn1	> 6.30
COc1ccccc1Nc1cc(-c2c(N)nn3cc(-c4ccncc4)cnc23)ncn1	> 6.30
Nc1nn2cc(-c3ccc(N4CCN(Cc5ccncc5)CC4)nc3)cnc2c1-c1ccccn1	> 6.30
Nc1nn2cc(CCCNC3CC3)cnc2c1-c1ccccn1	5.30 to 6.30
CC(C)(C)OCc1ccccc1-c1cnc2c(-c3ccccn3)c(N)nn2c1	5.30 to 6.30
COc1ccc(-c2cnc3c(-c4ccncc4)c(N)nn3c2)cc1	5.30 to 6.30
Nc1nn2cc(CCCN3CC[C@H](O)C3)cnc2c1-c1ccccn1	5.30 to 6.30

## Input Quick one: pKi of CC(C)CN(C)C(=O)c1ccc(-c2cnc3c(-c4ccccn4)c(N)nn3c2)nc1 ?
## Output > 6.30

## Input What do we get for Nc1nn2cc(-c3ccc(CN4CCOCC4)cc3)cnc2c1-c1ccccn1 ?
## Output 5.30 to 6.30

## Input Also Nc1nn2cc(-c3ccccc3-c3ccccc3)cnc2c1-c1ccccn1 ?
## Output 5.30 to 6.30

## Input Try this compound too: Nc1nn2cc(NC(=O)c3ccccc3)cnc2c1-c1ccccn1
## Output 5.30 to 6.30

## Input Consider next the compound Cc1cnc2c(-c3cc(N4CCC(C(N)=O)CC4)ncn3)c(N)nn2c1 in the same way.
## Output 5.30 to 6.30

## Input COc1ccccc1Nc1cc(-c2c(N)nn3cc(C)cnc23)ncn1 , same question.
## Output > 6.30

## Input Then this compound: NCc1cccc(-c2cnc3c(-c4ccccn4)c(N)nn3c2)c1
## Output > 6.30

## Input // query: Cc1n[nH]c(C)c1-c1cnc2c(-c3ccccn3)c(N)nn2c1
## Output > 6.30

## Input // same read-out, input: Nc1nn2cc(-c3ccc(N4CCC[C@@H]4CN4CCCC4)nc3)cnc2c1-c1ccccn1
## Output > 6.30

## Input How about this compound: Nc1nn2cc(-c3ccc(CN4CCNCC4)cc3)cnc2c1-c1ccccn1
## Output > 6.30

## Input Then COc1ccc(-c2cn3nc(N)c(-c4ccccn4)c3nc2C)cc1 ?
## Output 5.30 to 6.30

## Input Same thing, different compound: CCCN(CCO)c1ccc(-c2cnc3c(-c4ccccn4)c(N)nn3c2)cn1
## Output > 6.30
